Target: Adenosine receptor A1 (Homo sapiens) (UniProt P30542)
Sequence (whole entry): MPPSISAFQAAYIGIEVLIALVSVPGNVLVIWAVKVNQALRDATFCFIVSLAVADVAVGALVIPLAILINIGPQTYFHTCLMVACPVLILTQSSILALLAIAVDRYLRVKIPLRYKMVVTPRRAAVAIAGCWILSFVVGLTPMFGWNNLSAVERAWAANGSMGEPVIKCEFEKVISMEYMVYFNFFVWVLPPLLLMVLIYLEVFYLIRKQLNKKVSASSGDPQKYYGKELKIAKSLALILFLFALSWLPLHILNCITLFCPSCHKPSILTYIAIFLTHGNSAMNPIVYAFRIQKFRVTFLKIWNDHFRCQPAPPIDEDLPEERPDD
Test: Displacement of [3H]NECA from human recombinant adenosine A1 receptor expressed in CHO cells at 10 uM by liquid scintillation counting
Type: cell-based
Listing of entries alongside the reported inhibition.
ATTRIBUTE MEASURED: inhibition

>  <SMILES RECORD>
O[C@@H]1[C@H](O)CO[C@H]1n1cnc2c(NCc3cccc(F)c3)nc(Cl)nc21

>  <RESULT>
43%

$$$$
>  <SMILES RECORD>
O[C@@H]1[C@H](O)CO[C@H]1n1cnc2c(NCc3cccc(F)c3)ncnc21

>  <RESULT>
36%

$$$$
>  <SMILES RECORD>
CNc1ncnc2c1ncn2[C@@H]1OC[C@@H](O)[C@H]1O

>  <RESULT>
44%

$$$$
>  <SMILES RECORD>
CNc1nc(Cl)nc2c1ncn2[C@@H]1OC[C@@H](O)[C@H]1O

>  <RESULT>
49%

$$$$
